Give measured Cmax for each item. Keep answers brief.
# Test Method Notes: in vivo
# Assay type: in vivo, CD-1 female mice
# Settings: female, CD-1, mouse, in vivo, po, 100 mg/kg
Express the result in ng/mL but write the number alone.

Query (compound): "Cc1ccc(C(=O)N2CCOCC2)cc1Nc1nccn1-c1cc(NC2CC2)ncn1" ; field requested: Cmax
8900

State the recorded Cmax for this entry: CC[C@@H](CO)NCCN[C@@H](CC)CO [EMB, ethambutol, reference compound]
2500

---

# Tested on: MTB pMV262-rv0577
# Test Method Notes: microbe, parasite or virus in culture
# Type: cell-based
# Settings: Mycobacterium tuberculosis, read-out: MTB pMV262-rv0577 MIC50
Measurement Type: MIC50
The reply should consist of the numeric value with the unit placed after it.

Give MTB pMV262-rv0577 MIC50 for "Cc1ccc(NC(=O)c2ccccc2)cc1Nc1nccn1-c1cc(NC2CCCC2)ncn1"
2.32 µM

MIC50 of "c1ccc(-c2nc3cc(Nc4nccn4-c4cc(NC5CCCC5)ncn4)ccc3[nH]2)cc1" on MTB pMV262-rv0577?
3.53 µM

Give the reported MIC50 for NNC(=O)c1ccncc1 [Isoniazid, isoniazid, reference compound] (system: MTB pMV262-rv0577).
0.37 µM

# returns recorded MIC50 (system: MTB pMV262-rv0577) for [H]/N=C(/N)N[C@H]1[C@H](O)[C@@H](O)[C@H](O[C@@H]2O[C@@H](C)[C@](O)(C=O)[C@H]2O[C@@H]2O[C@@H](CO)[C@H](O)[C@@H](O)[C@@H]2NC)[C@@H](N/C(N)=N\[H])[C@@H]1O [Streptomycin, streptomycin, reference compound]
0.12 µM
